- conditionDetails: in n-propanol, 323.15 K
recordedMetric: solubility (mole fraction)
Enter the number alone.

// returns reported solubility (mole fraction) for input "COC(=O)c1cc(OC)c2c(c1-c1c(C(=O)OC)cc(OC)c3c1OCO3)OCO2"
0.000479

---

- conditionDetails: in n-pentyl acetate, 323.15 K
recordedMetric: solubility (mole fraction)
Enter the number alone.

// returns reported solubility (mole fraction) for input "COC(=O)c1cc(OC)c2c(c1-c1c(C(=O)OC)cc(OC)c3c1OCO3)OCO2"
0.00387

---

- conditionDetails: in n-butyl acetate, 313.15 K
recordedMetric: solubility (mole fraction)
Enter the number alone.

// returns reported solubility (mole fraction) for input "COC(=O)c1cc(OC)c2c(c1-c1c(C(=O)OC)cc(OC)c3c1OCO3)OCO2"
0.00318
